experimental readout: melting point

Use these answered entries as a reference point.
| molecule | melting point |
| --- | --- |
| COC(=O)C(C(=O)OC)=C(C)N | 81 to 82 °C |
| CCOC(=O)c1cc2ccnc(Cl)c2[nH]1 | 152 to 157 °C |

# return melting point for each item in the list
1. COc1ccc(S(=O)O)cc1
2. CCn1cc(CN(C(=O)C2CCCc3c(O)cccc32)c2ccc(C(C)C)nc2)cn1 (stereo not given)
3. CN1C(=O)C(c2ccncc2)(c2ccc(OC(F)F)cc2)N=C1N (stereo not given)
4. CCNC1N=CN(c2ccccc2C)C(=O)N1 (stereo not given)
5. Cc1ccc(N2CCN(CCC3NC(=O)c4ccccc43)CC2)cc1C (stereo not given)

173 to 174 °C
173 °C
193 to 195 °C
208 to 210 °C
167 to 169 °C

Provenance of the data: a melting point compilation (Tetko et al.; mined from patent text by program, amines drawn as free bases though some values may be those of a salt)
